# systemTested: Nanoluciferase-BRD9 fusion protein (Homo sapiens (Human))
# Sequence (Q9H8M2 whole entry, the tested form may be a part): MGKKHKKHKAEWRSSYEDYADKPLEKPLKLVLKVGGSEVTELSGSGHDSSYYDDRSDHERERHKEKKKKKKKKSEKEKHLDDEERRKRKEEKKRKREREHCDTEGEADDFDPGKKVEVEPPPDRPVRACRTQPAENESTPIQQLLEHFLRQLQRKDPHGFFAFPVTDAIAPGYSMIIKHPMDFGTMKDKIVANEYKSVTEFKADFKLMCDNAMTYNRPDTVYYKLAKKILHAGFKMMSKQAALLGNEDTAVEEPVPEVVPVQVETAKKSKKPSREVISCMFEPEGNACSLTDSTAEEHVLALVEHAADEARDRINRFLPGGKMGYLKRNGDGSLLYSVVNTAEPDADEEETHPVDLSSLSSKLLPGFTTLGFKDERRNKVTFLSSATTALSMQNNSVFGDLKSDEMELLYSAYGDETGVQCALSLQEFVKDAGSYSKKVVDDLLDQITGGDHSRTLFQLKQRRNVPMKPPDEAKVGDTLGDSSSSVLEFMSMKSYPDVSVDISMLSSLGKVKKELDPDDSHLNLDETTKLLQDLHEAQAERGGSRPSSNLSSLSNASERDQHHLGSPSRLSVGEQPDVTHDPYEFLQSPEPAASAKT
# testSummary: SYO1 BRD9 NanoLuc degradation assay
# Type: cell-based
# setupConditions: Table 5C; SYO-1 cells expressing 3×FLAG-NLuc-BRD9, 6 hours; read-out: SYO1 BRD9-NanoLuc degradation IC50
Examples of compounds with documented DC50 follow.

# example entries with known answers
input: Need DC50 of COc1cc(-c2cc(C(F)F)c(=O)n(C)c2)cc(OC)c1CN1CCC2(C1)CN(c1ccc3c(c1)C(=O)N(C1CCC(=O)NC1=O)C3=O)C2 (stereo not drawn) , thanks.
output: < 10 nM

input: Need DC50 of COc1cc(-c2cn(C)c(=O)c3[nH]cnc23)cc(OC)c1CN1CCC2(CC1)CN(c1ccc3c(c1)C(=O)N(C1CCC(=O)NC1=O)C3)C2 (stereo not drawn) , thanks.
output: < 10 nM

input: Need DC50 of COc1cc(-c2cn(C)c(=O)c3cccn23)cc(OC)c1CN1CCC2(CC1)CN(c1ccc3c(c1)C(=O)N(C1CCC(=O)NC1=O)C3)C2 (stereo not drawn) , thanks.
output: < 10 nM

New cases:
input: Need DC50 of COc1cc(-c2cn(C)c(=O)c3cnccc23)cc(OC)c1CN1CCC2(CC1)CN(c1ccc3c(c1)C(=O)N(C1CCC(=O)NC1)C3)C2 (stereo not drawn) , thanks.
output: > 1000 nM

input: Need DC50 of COc1cc(-c2cn(C)c(=O)c3cnccc23)cc(OC)c1CN1CCC2(CC1)CN(c1ccc3c(c1)CN(C1CCC(=O)NC1=O)C3=O)C2 (stereo not drawn) , thanks.
output: < 10 nM

input: Need DC50 of COc1cc(-c2cccc3c(=O)n(C)ccc23)cc(OC)c1CN1CCC2(CC1)CN(c1ccc3c(c1)C(=O)N(C1CCC(=O)NC1=O)C3)C2 (stereo not drawn) , thanks.
output: 10 to 100 nM

###

# systemTested: BRD9 bromodomain (Homo sapiens (Human), UniProt Q9H8M2)
# Sequence (Q9H8M2 133-239): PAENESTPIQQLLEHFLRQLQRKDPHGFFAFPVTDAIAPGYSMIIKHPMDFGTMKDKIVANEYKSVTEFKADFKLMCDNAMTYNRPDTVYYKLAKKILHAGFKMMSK
# testSummary: BRD9 bromodomain TR-FRET competition binding assay
# setupConditions: Table 4; competition with biotinylated ligand, 3 nM Flag-BRD9, 90 minutes
pIC50: −log10 of the molar value.
readoutKind: pIC50

input: Under BRD9 bromodomain (Homo sapiens (Human), UniProt Q9H8M2): pIC50 value of COc1cc(-c2cn(C)c(=O)c3cnccc23)cc(OC)c1CN(C)C12CC(NC(=O)CCOCCOCCNc3cccc4c3C(=O)N(C3CCC(=O)NC3=O)C4=O)(C1)C2 (centres unmarked) ?
output: > 8.00

input: Under BRD9 bromodomain (Homo sapiens (Human), UniProt Q9H8M2): pIC50 value of COc1cc(-c2cn(C)c(=O)c3cnccc23)cc(OC)c1CN(C)C1CC2CN(C(=O)CCOCCOc3ccc4c(c3)C(=O)N(C3CCC(=O)NC3=O)C4=O)CC2C1 (centres unmarked) ?
output: > 8.00

input: Under BRD9 bromodomain (Homo sapiens (Human), UniProt Q9H8M2): pIC50 value of COc1cc(-c2cn(C)c(=O)c3cnccc23)cc(OC)c1CN(C)C1CCC12CCN(C(=O)CCOCCOc1cccc3c1C(=O)N(C1CCC(=O)NC1=O)C3=O)CC2 (centres unmarked) ?
output: 7.00 to 8.00

input: Under BRD9 bromodomain (Homo sapiens (Human), UniProt Q9H8M2): pIC50 value of COc1cc(-c2cn(C)c(=O)c3cnccc23)cc(OC)c1CN(C)CC(=O)NCCCC(=O)NC12CC(Nc3cccc4c3C(=O)N(C3CCC(=O)NC3=O)C4=O)(C1)C2 (centres unmarked) ?
output: > 8.00

input: Under BRD9 bromodomain (Homo sapiens (Human), UniProt Q9H8M2): pIC50 value of COc1cc(-c2cn(C)c(=O)c3cnccc23)cc(OC)c1CN1CC(CC(=O)NCCCCCCCCNc2cccc3c2C(=O)N(C2CCC(=O)NC2=O)C3=O)C1 (centres unmarked) ?
output: > 8.00

input: Under BRD9 bromodomain (Homo sapiens (Human), UniProt Q9H8M2): pIC50 value of COc1cc(-c2cn(C)c(=O)c3cnccc23)cc(OC)c1CN1CCC2CCN(C(=O)CCOCCOc3cccc4c3C(=O)N(C3CCC(=O)NC3=O)C4=O)CC21 (centres unmarked) ?
output: 7.00 to 8.00
